Overview of reported pIC50 across a group of compounds:
target: p38α produced and activated in human cells (Homo sapiens); assay: Kinase inhibitor IC50 determination with p38α produced in human cells; format: biochemical; conditions: p38α produced in human cells; read-out: IC50, Human Cell
Sequence (Q16539 whole entry): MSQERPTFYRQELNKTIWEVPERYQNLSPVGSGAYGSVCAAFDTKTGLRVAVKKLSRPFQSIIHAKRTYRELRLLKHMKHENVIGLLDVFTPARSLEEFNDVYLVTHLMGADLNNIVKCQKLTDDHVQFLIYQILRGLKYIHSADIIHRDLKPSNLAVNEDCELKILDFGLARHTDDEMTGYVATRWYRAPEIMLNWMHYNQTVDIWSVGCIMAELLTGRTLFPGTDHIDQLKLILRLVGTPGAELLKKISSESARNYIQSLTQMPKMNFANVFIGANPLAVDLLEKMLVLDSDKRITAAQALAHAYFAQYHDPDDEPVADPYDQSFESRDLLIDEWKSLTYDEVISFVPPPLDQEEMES
In simple prose, pIC50 is minus the logarithm base ten of a concentration in moles per litre.

>>> df
                                   compound  value_reported
0  CCCCCCOC(=O)[C@]1(O)C[C@@H]2O[C@@]1(C)n1c3ccccc3c3c4c(c5c6ccccc6n2c5c31)C(=O)NC4 [KT5720]            5.30

input: State the recorded pIC50 for this entry: Cn1cc(C2=C(c3cn(CCCSC(=N)N)c4ccccc34)C(=O)NC2=O)c2ccccc21 [Ro 31-8220]
output: 5.00

input: Sample Nc1ncnc2c1ncn2[C@@H]1O[C@H](COP(=O)(O)OP(=O)(O)NP(=O)(O)O)[C@@H](O)[C@H]1O [AMP-PNP] — what was its pIC50?
output: 3.59

----------
molecular target: p38α expressed in E. coli, Vendor A, in vitro activated by MKK6 (Homo sapiens, UniProt Q16539); experiment: Kinase inhibitor IC50 determination with E. coli p38α (Vendor A, E coli-I); type: biochemical
Sequence (Q16539 whole entry): as above
pIC50: −log10 of the molar value.
ATTRIBUTE MEASURED: pIC50

                                   molecule  attribute_measured  value_reported
0  COC(=O)[C@@]1(O)C[C@H]2O[C@]1(C)n1c3ccccc3c3c4c(c5c6ccccc6n2c5c31)C(=O)NC4 [K252a]               pIC50          < 5.00

Let us examine a further case.
input: Which pIC50 value belongs to CC(=O)c1c(O)c(C)c(O)c(Cc2c(O)c3c(c(C(=O)/C=C/c4ccccc4)c2O)OC(C)(C)C=C3)c1O [Rottlerin] ?
output: < 3.70

----------
target: p38α expressed in E. coli, Vendor A, in vitro activated by MKK6 (Homo sapiens, UniProt Q16539); experiment: Kinase inhibitor IC50 determination with E. coli p38α (Vendor A, E coli-I); format: biochemical; conditions: read-out: IC50, E coli-I
pIC50: −log10 of the molar value.
ATTRIBUTE MEASURED: pIC50

input: Give its pIC50 value. Item: Nc1ncnc2c1c(I)cn2[C@@H]1O[C@H](CO)[C@@H](O)[C@H]1O
output: < 5.00

----------
// reported IC50 for each item listed
target: p38α produced and activated in human cells (Homo sapiens); assay: Kinase inhibitor IC50 determination with p38α produced in human cells; format: biochemical; conditions: read-out: IC50, Human Cell

input: Suppose we examine the compound Nc1ncnc2c1c(I)cn2[C@@H]1O[C@H](CO)[C@@H](O)[C@H]1O ; what IC50 value has been reported?
output: > 10 µM

input: Field request: IC50 | item: CN(C)CCCn1cc(C2=C(c3c[nH]c4ccccc34)C(=O)NC2=O)c2ccccc21 [GF 109203X]
output: > 10 µM

input: Report IC50 for CC(=O)c1c(O)c(C)c(O)c(Cc2c(O)c3c(c(C(=O)/C=C/c4ccccc4)c2O)OC(C)(C)C=C3)c1O please.
output: >200 µM

input: Field request: IC50 | item: COC(=O)[C@@]1(O)C[C@H]2O[C@]1(C)n1c3ccccc3c3c4c(c5c6ccccc6n2c5c31)C(=O)NC4 [K252a]
output: 0.005 µM
